molecular target: [35S]-TBPS binding, rat brain cortical membranes; assay: Steroid inhibition of [35S]-TBPS binding; settings: 3 nM [35S]-TBPS, in the presence of 5 mM GABA
pIC50: −log10 of the molar value.
readout-label: pIC50

Consider the worked cases shown below.
COC[C@@]1(O)CC[C@H]2[C@H](CC[C@@H]3[C@@H]2CC[C@]2(C)[C@@H]([C@H](C)NC(=O)c4ccc(F)cc4F)CC[C@@H]32)C1 : 5.00 to 6.00
CC[C@@]1(O)CC[C@H]2[C@H](CC[C@@H]3[C@@H]2CC[C@]2(C)[C@@H]([C@H](C)Cn4ccc(C#N)n4)CC[C@@H]32)C1 : > 7.00
C[C@@H]([C@H]1CC[C@H]2[C@@H]3CC[C@@H]4C[C@](C)(O)CC[C@@H]4[C@H]3CC[C@]12C)N(C)c1ccccc1 : 5.00 to 6.00
C[C@@H](Cn1cc(C#N)cn1)[C@H]1CC[C@H]2[C@@H]3CC[C@@H]4C[C@@](O)(CC5CC5)CC[C@@H]4[C@H]3CC[C@]12C : > 7.00
CC[C@H](NCc1ccccc1)[C@H]1CC[C@H]2[C@@H]3CC[C@@H]4C[C@@](O)(COC)CC[C@@H]4[C@H]3CC[C@]12C : 5.00 to 6.00

Batch: pIC50 for all items listed.
1. CCOC[C@@]1(O)CC[C@H]2[C@H](CC[C@@H]3[C@@H]2CC[C@]2(C)[C@@H](CNC(=O)c4ccccc4)CC[C@@H]32)C1
2. CC[C@@]1(O)CC[C@@]2(C)[C@H](CC[C@@H]3[C@@H]2CC[C@]2(C)[C@@H]([C@@H](C)Cn4nccc4C#N)CC[C@@H]32)C1
3. COc1cccc(C(=O)N[C@@H](C)[C@H]2CC[C@H]3[C@@H]4CC[C@@H]5C[C@](C)(O)CC[C@@H]5[C@H]4CC[C@]23C)c1
4. CCOC[C@@]1(O)CC[C@@]2(C)[C@H](CC[C@H]3C4CC[C@H]([C@@H](C)Nc5ccc(-n6cc(C#N)cn6)cn5)[C@@]4(C)CC[C@@H]32)C1 (some centres unmarked)
5. CCC[C@@]1(O)CC[C@H]2[C@H](CC[C@@H]3[C@@H]2CC[C@]2(C)[C@@H]([C@@H](C)Cc4ccc(C(F)(F)F)nc4)CC[C@@H]32)C1
6. C[C@H]1CCCC(=O)N1C[C@H]1CC[C@H]2[C@@H]3CC[C@@H]4C[C@](C)(O)CC[C@@H]4[C@H]3CC[C@]12C

Solution:
["> 7.00", "> 7.00", "5.00 to 6.00", "6.00 to 7.00", "6.00 to 7.00", "5.00 to 6.00"]

* * *

Would you mind telling me the reported IC50 of each entry?
molecular target: [35S]-TBPS binding, rat brain cortical membranes; assay: Steroid inhibition of [35S]-TBPS binding; settings: 3 nM [35S]-TBPS, in the presence of 5 mM GABA

Look over these answered cases.
C[C@H](Cn1cc(C#N)cn1)[C@H]1CC[C@H]2[C@@H]3CC[C@@H]4C[C@](C)(O)CC[C@]4(C)[C@H]3CC[C@]12C : < 100 nM
CCC[C@@]1(O)CC[C@H]2[C@H](CC[C@@H]3[C@@H]2CC[C@]2(C)[C@@H]([C@@H](C)Cn4nnc(C)n4)CC[C@@H]32)C1 : < 100 nM
CCOC[C@@]1(O)CC[C@H]2[C@H](CC[C@@H]3[C@@H]2CC[C@]2(C)[C@@H]([C@H](Nc4ccc(C#N)cc4C)C(F)(F)F)CC[C@@H]32)C1 : 100 to 1000 nM

Quick request: IC50 for each listed item, please.
1. C[C@H]([C@H]1CC[C@H]2[C@@H]3CC[C@@H]4C[C@](C)(O)CC[C@@H]4[C@H]3CC[C@]12C)n1cc(C#N)cn1
2. C[C@@]1(O)CC[C@H]2[C@H](CC[C@@H]3[C@@H]2CC[C@]2(C)[C@@H](CN4C[C@@H](c5ccccc5)CC4=O)CC[C@@H]32)C1

Solution:
< 100 nM
100 to 1000 nM

* * *

molecular target: [35S]-TBPS binding, rat brain cortical membranes; test: Steroid inhibition of [35S]-TBPS binding; settings: 3 nM [35S]-TBPS, in the presence of 5 mM GABA
Please respond with reported IC50 for every item in the list.

// below: answered compounds
CCC[C@@]1(O)CC[C@H]2[C@@H](CC[C@@H]3[C@@H]2CC[C@]2(C)[C@@H]([C@H](C)Cn4nnnc4C)CC[C@@H]32)C1 [Example 331] : ≥ 10000 nM
COC[C@@]1(O)CC[C@H]2[C@@H](CC[C@@H]3[C@@H]2CC[C@]2(C)[C@@H]([C@H](C)Cn4nnc(C)n4)CC[C@@H]32)C1 [Example 54] : 100 to 1000 nM
C[C@@]1(O)CC[C@H]2[C@H](CC[C@@H]3[C@@H]2CC[C@]2(C)[C@@H](CN4CC[C@@H](c5ccccc5)C4=O)CC[C@@H]32)C1 [Example 11] : 100 to 1000 nM
C[C@@H]([C@H]1CC[C@H]2[C@@H]3CC[C@@H]4C[C@](C)(O)CC[C@@H]4[C@H]3CC[C@]12C)N(C)S(=O)(=O)c1ccccc1 [Example 21] : 1000 to 10000 nM
C[C@H](NC(=O)c1cccnc1)[C@H]1CC[C@H]2[C@@H]3CC[C@@H]4C[C@](C)(O)CC[C@@H]4[C@H]3CC[C@]12C [Example 30] : 1000 to 10000 nM
C[C@@H](Cc1ccc(C(F)(F)F)nc1)[C@H]1CC[C@H]2[C@@H]3CC[C@@H]4C[C@](C)(O)CC[C@]4(C)[C@H]3CC[C@]12C [Example 427] : < 100 nM
C[C@H](N[C@H](C)[C@H]1CC[C@H]2[C@@H]3CC[C@@H]4C[C@](C)(O)CC[C@@H]4[C@H]3CC[C@]12C)c1ccccc1 [Example 209] : 100 to 1000 nM
C[C@@H](NC(=O)c1ccc(F)cc1)[C@H]1CC[C@H]2[C@@H]3CC[C@@H]4C[C@](C)(O)CC[C@@H]4[C@H]3CC[C@]12C [Example 116] : < 100 nM
C[C@H](Nc1ccc(C#N)cc1)[C@H]1CC[C@H]2[C@@H]3CC[C@@H]4C[C@](C)(O)CC[C@@H]4[C@H]3CC[C@]12C [Example 205] : 1000 to 10000 nM
COC[C@@]1(O)CC[C@H]2[C@@H](CC[C@@H]3[C@@H]2CC[C@]2(C)[C@@H]([C@@H](C)Cn4nnc(C)n4)CC[C@@H]32)C1 [Example 53] : 100 to 1000 nM

# map each compound to its IC50
1. C[C@H]([C@H]1CC[C@H]2[C@@H]3CC[C@@H]4C[C@](C)(O)CC[C@@H]4[C@H]3CC[C@]12C)n1ccnn1 [Example 159]
2. COC[C@@]1(O)CC[C@@]2(C)[C@H](CC[C@@H]3[C@@H]2[C@H](O)C[C@]2(C)[C@@H]([C@H](C)Cn4cc(C#N)cn4)CC[C@@H]32)C1 [Example 282]
3. CCOC[C@@]1(O)CC[C@H]2[C@H](CC[C@@H]3[C@@H]2CC[C@]2(C)[C@@H]([C@H](C)n4cc(C#N)cn4)CC[C@@H]32)C1 [Example 163]
4. COC[C@@]1(O)CC[C@H]2[C@H](CC[C@@H]3[C@@H]2CC[C@]2(C)[C@@H](CCn4ccc(C#N)n4)CC[C@@H]32)C1 [Example 87]
5. COC[C@@]1(O)CC[C@H]2[C@H](CC[C@@H]3[C@@H]2CC[C@]2(C)[C@@H]([C@@H](C)n4cc(C#N)cn4)CC[C@@H]32)C1 [Example 150]

Solution:
≥ 10000 nM
100 to 1000 nM
1000 to 10000 nM
< 100 nM
< 100 nM

For each of the compounds below, note its IC50.
1. CC[C@]12CC[C@H]3[C@@H](CC[C@@H]4C[C@](C)(O)CC[C@@H]43)[C@@H]1CC[C@@H]2[C@H](C)Cn1cc(C#N)cn1 [Example 318]
2. C[C@@H](Cn1nccn1)[C@H]1CC[C@H]2[C@@H]3CC[C@H]4C[C@](C)(O)CC[C@@H]4[C@H]3CC[C@]12C [Example 57]
3. C[C@H](NC(=O)c1cccc(C#N)c1)[C@H]1CC[C@H]2[C@@H]3CC[C@@H]4C[C@](C)(O)CC[C@@H]4[C@H]3CC[C@]12C [Example 110]
4. COC[C@@]1(O)CC[C@H]2[C@@H](CC[C@@H]3[C@@H]2CC[C@]2(C)[C@@H](CCn4nnnc4C)CC[C@@H]32)C1 [Example 296]
5. CN(C[C@H]1CC[C@H]2[C@@H]3CC[C@@H]4C[C@](C)(O)CC[C@@H]4[C@H]3CC[C@]12C)S(=O)(=O)c1ccccc1 [Example 5]
6. C[C@H](NC(=O)c1ccc(C#N)cn1)[C@H]1CC[C@H]2[C@@H]3CC[C@@H]4C[C@](C)(O)CC[C@@H]4[C@H]3CC[C@]12C [Example 121]

Solution:
< 100 nM
100 to 1000 nM
1000 to 10000 nM
< 100 nM
< 100 nM
1000 to 10000 nM

Values were extracted from patent US20230322846A9.
